- tested_on: Muscarinic acetylcholine receptor M2 (Homo sapiens)
- Sequence (P08172 whole entry): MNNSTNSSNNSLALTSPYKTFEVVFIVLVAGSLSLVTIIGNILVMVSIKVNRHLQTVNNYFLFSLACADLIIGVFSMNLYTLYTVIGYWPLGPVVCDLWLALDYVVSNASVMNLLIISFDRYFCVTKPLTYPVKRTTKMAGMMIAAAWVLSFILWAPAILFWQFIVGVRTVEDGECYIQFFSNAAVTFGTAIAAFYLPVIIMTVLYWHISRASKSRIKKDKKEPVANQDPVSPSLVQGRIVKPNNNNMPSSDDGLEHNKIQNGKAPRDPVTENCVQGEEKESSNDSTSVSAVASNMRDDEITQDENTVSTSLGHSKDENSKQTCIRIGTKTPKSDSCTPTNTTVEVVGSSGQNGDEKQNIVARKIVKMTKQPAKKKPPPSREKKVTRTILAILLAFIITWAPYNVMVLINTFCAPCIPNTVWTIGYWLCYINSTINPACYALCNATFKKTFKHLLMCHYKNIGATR
- Format: functional, cell-based
AC50 listing for selected compounds.

Data request: Param item = COc1ccccc1OCCNCC(O)COc1cccc2[nH]c3ccccc3c12 (configuration not stated) [CARVEDILOL] ; retrieve measured AC50.
Data returned: > 10 µM

Data request: What would you report for CC(=O)SC[C@@H](C)C(=O)N1CCC[C@H]1C(=O)N[C@@H](Cc1ccccc1)C(=O)O ?
Data returned: > 30 µM

Data request: Record: CC1(C)S[C@@H]2[C@H](NC(=O)[C@H](N)c3ccccc3)C(=O)N2[C@H]1C(=O)OCOC(=O)[C@@H]1N2C(=O)C[C@H]2S(=O)(=O)C1(C)C [SULTAMICILLIN]
Data returned: > 30 µM

Data request: Another compound to check: CC(CCc1ccc(O)cc1)NCCc1ccc(O)c(O)c1 (configuration not stated) [DOBUTAMINE]
Data returned: > 30 µM

Data request: Next: COCC1=C(C(=O)O)N2C(=O)[C@@H](NC(=O)/C(=N\OC)c3csc(N)n3)[C@H]2SC1 [CEFPODOXIME]
Data returned: > 30 µM

Data request: Next compound up: C/N=C(\NC)NCc1ccccc1 [BETHANIDINE]
Data returned: > 30 µM

Data request: Can you handle CCC(=O)O[C@H]1CC[C@H]2[C@@H]3CCC4=CC(=O)CC[C@]4(C)[C@H]3CC[C@]12C [TESTOSTERONE PROPIONATE] next?
Data returned: > 10 µM

Data request: Lookup CC(N)C12CC3CC(CC(C3)C1)C2 (configuration not stated) [RIMANTADINE]
Data returned: > 10 µM

Data request: Try C#CCOc1ccc(N)cc1C(=O)NCCCC [PARSALMIDE] next.
Data returned: > 30 µM

----------
Observed AC50, system Neuronal acetylcholine receptor subunit alpha-4 (Homo sapiens). Note: assay procedure not described here.

Data request: Could you tell me which AC50 is on file for CN(C)CCCNc1c2ccccc2nc2cccc([N+](=O)[O-])c12 ?
Data returned: > 30 µM

Data request: Thanks! And CCCN[C@H]1CCc2nc(N)sc2C1 [PRAMIPEXOLE] ?
Data returned: > 10 µM

Data request: How about C[C@]12CCC(=O)C(O)=C1CC[C@@H]1[C@@H]2CC[C@]2(C)C(=O)CC[C@@H]12 ?
Data returned: > 30 µM

---
Data request: AC50 for C/N=C(\NC)NCc1ccccc1 ?
Data returned: > 30 µM

Data request: Next compound: COc1cc2ncnc(Nc3ccc(F)c(Cl)c3)c2cc1NC(=O)/C=C/CN1CCCCC1 [DACOMITINIB ANHYDROUS]
Data returned: > 30 µM

----------
# AC50 measurements, system: Melanocortin receptor 3 (Homo sapiens, UniProt P41968); note: assay procedure not described here
# Sequence (P41968 whole entry): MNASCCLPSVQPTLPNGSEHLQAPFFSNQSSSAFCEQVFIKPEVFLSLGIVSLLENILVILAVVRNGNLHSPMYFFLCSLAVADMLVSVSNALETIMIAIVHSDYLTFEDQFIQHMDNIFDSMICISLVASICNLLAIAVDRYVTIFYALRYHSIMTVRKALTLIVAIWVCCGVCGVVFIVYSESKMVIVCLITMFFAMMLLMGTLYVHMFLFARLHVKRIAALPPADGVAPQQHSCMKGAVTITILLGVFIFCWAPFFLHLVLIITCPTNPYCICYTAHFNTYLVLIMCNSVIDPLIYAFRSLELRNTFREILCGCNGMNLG

Data request: Requested read-out: AC50. Entry: [H]/N=C(/N)N/C(=N/[H])NCCc1ccccc1 [PHENFORMIN]
Data returned: > 30 µM

Data request: Further, for C[C@]12C=CC(=O)N[C@@H]1CC[C@@H]1[C@@H]2CC[C@]2(C)[C@@H](C(=O)Nc3cc(C(F)(F)F)ccc3C(F)(F)F)CC[C@@H]12 [DUTASTERIDE] ?
Data returned: > 10 µM

Data request: Further, for C#CCOc1ccc(N)cc1C(=O)NCCCC [PARSALMIDE] ?
Data returned: > 30 µM

Data request: What about CCOC(=O)O[C@]1(C(=O)OCCl)CC[C@H]2[C@@H]3CCC4=CC(=O)C=C[C@]4(C)[C@H]3[C@@H](O)C[C@@]21C [LOTEPREDNOL ETABONATE] ?
Data returned: > 30 µM

Data request: Another compound: CCN1CCCC1CNC(=O)c1cc(S(=O)(=O)CC)c(N)cc1OC (stereo not drawn) [AMISULPRIDE]
Data returned: > 30 µM

Data request: Now this one: COc1ccc(CC2c3cc(OC)c(OC)cc3CC[N+]2(C)CCC(=O)OCCCCCOC(=O)CC[N+]2(C)CCc3cc(OC)c(OC)cc3C2Cc2ccc(OC)c(OC)c2)cc1OC (stereo not drawn)
Data returned: > 30 µM

Data request: What do you get for C[C@@H](Oc1cc(-c2cnn(C3CCNCC3)c2)cnc1N)c1c(Cl)ccc(F)c1Cl [CRIZOTINIB] ?
Data returned: 19.9 µM

Read the next record carefully.
Data request: AC50 lookup needed for CNCc1ccc(-c2[nH]c3cc(F)cc4c3c2CCNC4=O)cc1 [RUCAPARIB] , thanks.
Data returned: > 30 µM
